- protocol notes: Trough plasma concentrations of Compound A in the human clinical study
- Type: in vivo
- condition summary: human, plasma, oral, 200 mg, 200 mg QD; 2 week; human plasma; BLQ (<2.00 ng/mL) set to 0; read-out: Trough Plasma Concentrations, Min-Max
measurement name: concentration at 2 week

Could you share which concentration at 2 week value was measured for C[C@@H](C(=O)N(C)c1ccc2cc(-c3n[nH]c4c3CCC(C)(C)C4)[nH]c2c1)N1CCOCC1 ?
5.01 to 2210 ng/mL

---

- protocol notes: Trough plasma concentrations of Compound A in the human clinical study
- Format: in vivo
- condition summary: human, plasma, oral, 150 mg, 150 mg QD; 2 week; human plasma; read-out: Trough Plasma Concentrations, Mean (SD)
measurement name: concentration at 2 week

Could you share which concentration at 2 week value was measured for C[C@@H](C(=O)N(C)c1ccc2cc(-c3n[nH]c4c3CCC(C)(C)C4)[nH]c2c1)N1CCOCC1 ?
335 ng/mL

---

- protocol notes: Trough plasma concentrations of Compound A in the human clinical study
- Format: in vivo
- condition summary: human, plasma, oral, 150 mg, 150 mg QD; 4 week; human plasma; read-out: Trough Plasma Concentrations, Median
measurement name: concentration at 4 week
Quote the value and follow it with the unit of measurement.

Could you share which concentration at 4 week value was measured for C[C@@H](C(=O)N(C)c1ccc2cc(-c3n[nH]c4c3CCC(C)(C)C4)[nH]c2c1)N1CCOCC1 ?
277 ng/mL

---

- protocol notes: Trough plasma concentrations of Compound A in the human clinical study
- Format: in vivo
- condition summary: human, plasma, oral, 200 mg, 200 mg QD; 8 week; human plasma; read-out: Trough Plasma Concentrations, Mean (SD)
measurement name: concentration at 8 week (ng/mL)
// units = ng/mL; emit number, no label

Could you share which concentration at 8 week value was measured for C[C@@H](C(=O)N(C)c1ccc2cc(-c3n[nH]c4c3CCC(C)(C)C4)[nH]c2c1)N1CCOCC1 ?
402

---

- protocol notes: Trough plasma concentrations of Compound A in the human clinical study
- Assay type: in vivo
- condition summary: human, plasma, oral, 200 mg, 200 mg QD; 8 week; human plasma; read-out: Trough Plasma Concentrations, Median
measurement name: concentration at 8 week (ng/mL)
// units = ng/mL; emit number, no label

Could you share which concentration at 8 week value was measured for C[C@@H](C(=O)N(C)c1ccc2cc(-c3n[nH]c4c3CCC(C)(C)C4)[nH]c2c1)N1CCOCC1 [Compound A] ?
392

---

- protocol notes: Trough plasma concentrations of Compound A in the human clinical study
- Assay type: in vivo
- condition summary: human, plasma, oral, 100 mg, 100 mg QD; 8 week; human plasma; BLQ (<2.00 ng/mL) set to 0; read-out: Trough Plasma Concentrations, Min-Max
measurement name: concentration at 8 week

Could you share which concentration at 8 week value was measured for C[C@@H](C(=O)N(C)c1ccc2cc(-c3n[nH]c4c3CCC(C)(C)C4)[nH]c2c1)N1CCOCC1 ?
0 to 785 ng/mL

---

- protocol notes: Trough plasma concentrations of Compound A in the human clinical study
- Assay type: in vivo
- condition summary: human, plasma, oral, 100 mg, 100 mg QD; 4 week; human plasma; read-out: Trough Plasma Concentrations, Mean (SD)
measurement name: concentration at 4 week

Could you share which concentration at 4 week value was measured for C[C@@H](C(=O)N(C)c1ccc2cc(-c3n[nH]c4c3CCC(C)(C)C4)[nH]c2c1)N1CCOCC1 [Compound A] ?
216 ng/mL
